Origin of measurements: paper PMC11550483

# System: HCoV-NL63 M^pro (Human coronavirus NL63, UniProt P0C6X5)
# Sequence (P0C6X5 2940-3242): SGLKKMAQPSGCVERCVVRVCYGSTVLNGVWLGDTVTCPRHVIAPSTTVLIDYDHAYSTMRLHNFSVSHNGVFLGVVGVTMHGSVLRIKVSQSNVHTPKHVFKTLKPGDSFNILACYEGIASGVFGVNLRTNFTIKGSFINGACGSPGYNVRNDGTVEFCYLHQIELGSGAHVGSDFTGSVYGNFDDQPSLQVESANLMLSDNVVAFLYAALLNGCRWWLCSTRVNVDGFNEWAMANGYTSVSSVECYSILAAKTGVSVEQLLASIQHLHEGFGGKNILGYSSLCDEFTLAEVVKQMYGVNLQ
# Condition Label: read-out: EC50 NL63 M^pro inhibition, cellular gain-of-signal
Measurement Name: EC50 (nM)
Answers are plain numbers, in nM.

Any idea what EC50 was measured for CC(C)C[C@H](NC(=O)OCc1ccccc1)C(=O)N[C@@H](CC1CCNC1=O)C(O)S(=O)(=O)O (stereo partly shown) ?
770
